assay remarks: in vitro
experimental context: human, plasma
This section presents compounds with their documented half-life at 2 μM values.
The figure you give is taken to be in min; do not add the unit.

INSERT INTO measurements (compound, observed) VALUES
  ('CC(C)[C@H](NC(=O)OC(C)(C)C)C(=O)OC[C@H]1O[C@@](C#N)(c2ccc3c(N)ncnn23)[C@@H]2OC(=O)CCCC(=O)O[C@@H]21 [Compound C58]', 26.4);

QUERY: Please report the recorded half-life at 2 μM for CC(C)(OC(=O)OC[C@H]1O[C@@](C#N)(c2ccc3c(N)ncnn23)[C@@H]2OC(=O)CCCC(=O)O[C@@H]21)c1ccncc1 [Compound C17] .
RESULT: 31.1

QUERY: So what's the measured half-life at 2 μM for this one? CN1[C@@H]2CC[C@H]1C[C@@H](OC(=O)OC[C@H]1O[C@@](C#N)(c3ccc4c(N)ncnn34)[C@@H]3OC(=O)CC(C)(C)CC(=O)O[C@@H]31)C2 [Compound C47]
RESULT: 60.2

QUERY: # lookup: half-life at 2 μM of CCOC(=O)C(C)(C)OC(=O)OC[C@H]1O[C@@](C#N)(c2ccc3c(N)ncnn23)[C@@H]2OC(=O)CCCC(=O)O[C@@H]21 [Compound C26]
RESULT: 18.3

QUERY: Data request, read-out half-life at 2 μM, for CC(C)COC(=O)OC[C@H]1O[C@@](C#N)(c2ccc3c(N)ncnn23)[C@@H]2OC(=O)CCCC(=O)O[C@@H]21 [Compound C18]
RESULT: 7.57

QUERY: Given the compound COC(=O)OC[C@H]1O[C@@](C#N)(c2ccc3c(N)ncnn23)[C@@H]2OC(=O)CC(C)(C)CC(=O)O[C@@H]21 [Compound C15] , what is its reported half-life at 2 μM?
RESULT: 16.1

Where do these numbers come from? They come from patent US20240417411A1.
